Values from the supplement of paper PMC6555819

# Tested on: PPARg:RXRa 270nM:90nM, anti-RXR (NR concentration 270 nM, RXRa partner concentration 90 nM)
# experiment_summary: PBM binding z-score (relative to random genomic background probes); higher = stronger binding; sequences stand for … in GC…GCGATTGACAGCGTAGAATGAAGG
Entries annotated with measured PBM binding z-score

{"columns": ["seq", "PBM binding z-score"],
 "data": [
  ["ACTTACGGGTCAGCGAGGTTATAGCACGCGTATA", 4.15],
  ["CATACTGGGCCATCAGGTCATTGATATCAACGTT", 3.57],
  ["CCGACAGGGGCAGAAAGGTTACCATACCATCCGG", 1.96],
  ["ATCTCTAGGTACAAGTTCAGTGAATCCCGAGGAT", 4.58],
  ["CCTACTGGGCCATCAGGTCACTGATATCAACGTT", 3.98],
  ["CCTACTGGGCCACAAAAGGTCATTGATTCAGTGA", 4.41]
]}

* * *

# Tested on: RXRa homodimer (NR concentration 180 nM)
# experiment_summary: PBM binding z-score (relative to random genomic background probes); higher = stronger binding; sequences stand for … in GC…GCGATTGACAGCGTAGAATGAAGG
Class T: PBM binding z-score at least 1. Class F: PBM binding z-score below 1.

{"columns": ["seq", "class"],
 "data": [
  ["CCTATTAGTTGACCATAAGGGAAACCGAAGCTCG", "F"],
  ["ATCTCTAGGTGACCAAGTTCAGTGAATGCCGAAC", "F"],
  ["GCTGCTAGGTCAACTGATGGTCAGATAAAGCTCG", "T"],
  ["TCATATAGGTAAATGCTAGGAGAAAGTCCGATCT", "F"],
  ["CCTATTAGTTGACCATAAGGGCAACCCAAGCTCG", "F"],
  ["ACTAGCCGGCCAAGTTTGGGTCACTCAAACAAAG", "F"],
  ["ACAGACAGCTGATGAAGGTAACTCAGGCTATCAT", "F"],
  ["CTACCAAGGTGAACAAGGTCGTTGTTTACTATTC", "T"],
  ["GATACAGGGTCAGCTAGAGACCAGAGTATGGAAA", "T"],
  ["ACTCGGAGGACGAAGGTCAGAGCTACGCCAGTGA", "T"],
  ["TCTTGTAGATCAAAGGTTACGAAAGCCGAAGCCT", "T"],
  ["AGAATGAGGTTCTACGTAGATCAGGGAAGAAAGT", "F"],
  ["AGAATGAGGTTACCAAAGATCAGGGTAACGCTTG", "T"],
  ["TCGAGTAAGTTACCAATGGGGCATTCAGCTTTCT", "F"],
  ["ATATGTAGGTTAGATCCGGGTCATTCAGGCTATG", "T"],
  ["ACCTACGGGTCAACGAGGTTATAGCACGCGTATA", "T"],
  ["ACTATTAGTTGACTTAGGGCGACCGATACGACGC", "F"],
  ["ACTAGCAGGCCAAGGATCACTCAAGATTAGTCCG", "F"],
  ["GCAGACAGGTGAAACGCAGGTAACTTAGGGTGGC", "F"],
  ["TCGAGTAGGTTAGTCAGGGCATTCAGCCAACATA", "F"],
  ["ACTATTAGTTGCGACGAGGGCAACCGATAGGTTG", "F"],
  ["CCTACTGGGCCAAGGTCATTAATCAGTCAAAGCA", "T"],
  ["ATCTCTAGGTAAGACTCAGTTCATTGAAGAACGC", "F"],
  ["GCTGCTAGGTCAACTGATGGGCAGCTAAAGCTCG", "T"],
  ["CCAGACAGGTGAGAAAGTAACTCAGCCTCGATTA", "F"],
  ["CGTCCAAGGTCATAGGAGGCCAGTGAAGACAGAT", "T"],
  ["TCTTGTAGATCAATAGAGGTAAAGAAAGTGCGCT", "F"],
  ["GCGACTGGGGCATCAGCAGGATACCATAACTTAA", "F"],
  ["CTAACAAGGTGAACAAGGTCGTTGATTACTATTC", "T"],
  ["TGAATGAGGTTATAATATCAGGGAACGTTGCAAA", "T"],
  ["CCTCGGAGGACAACACGAGGTCAGAGCTGCCAGA", "T"],
  ["TCAGACAGGTGAAGGTAGCTCAGGTACGCAGTCG", "F"],
  ["CGTCCAAGGTCCAGGTCAGTGAAAGAGACTCGAA", "F"],
  ["TCATATAGGTAAATGCTCGGTGAAAGTCCGATCT", "F"],
  ["TGTCAAAGTTCAAAGGTAACCTAAGTATCCACAC", "T"],
  ["TCGAGTAGGTGAGGGGCATTCAGAATGGCGTCGA", "F"],
  ["ATTTGTAGGTTAAGGGTCATTCAGGTTGGTTCGC", "T"],
  ["TCATATAGGTAAACAGGCGAAAGTCCGTAAGTTA", "F"],
  ["TCTATTAGTTGATTGGGGCAACCGAAACAGCGGA", "F"],
  ["CATACAGGGTCAGCTTGGCCAGAGTAGGGACGGC", "T"],
  ["GGAACGAGGGCATTCGAGCTGATAGCATGGCGAT", "F"],
  ["GCTCTTAGTTGAAAGGGCAACCGAATGATTCTCG", "T"],
  ["TTACCAAGGTGAGCTGAGGTCGTTCATCCAACTC", "T"],
  ["CCAGACAGGTGAAAGGTAACTCATTCTGGTACGC", "T"],
  ["CGTCAAAGTTCAACTAAGGTAACATAAAGCACGC", "T"],
  ["CAAACTATGTCAAGAGGTCAAAGTCCGCTTCCCG", "T"],
  ["CCTGCTCGGTCATGGTCAGCTAATCTACAGTATG", "F"],
  ["GCTGCTAGGTCAGGTTGCTCAGCTAACGGGTACG", "F"],
  ["TCTAGCGGGCCAGAGGGTCACTCAAGAGGTACGG", "T"],
  ["CCGACTGGGGCAAGGTTACCATCACGCACAGCCA", "T"]
]}

* * *

# Tested on: PXR homodimer (NR concentration 270 nM)
# experiment_summary: PBM binding z-score (relative to random genomic background probes); higher = stronger binding; sequences stand for … in GC…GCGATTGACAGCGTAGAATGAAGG
Class condition met: PBM binding z-score at least 0.5. Class condition not met: PBM binding z-score below 0.5.

{"columns": ["seq", "class"],
 "data": [
  ["TCGAGTAGGTTAGGGGGATTCAGAATGGCGTCGA", "condition not met"],
  ["ATATGTAGGTTAGCTGGGGTCATGCAGACTAGGC", "condition met"],
  ["CGTCCAAGGTCAATGCTAGGTCATTGAAAGCATT", "condition met"],
  ["TAACCAAGGTGAAAGGTCGTTGATGCACGCCTTG", "condition met"],
  ["ACGGACAGGTGATGAAGGTAACTCAGGCTATCAT", "condition not met"],
  ["TGAATGAGGTTACAGATCAGGGAACGTGGCGTCG", "condition not met"],
  ["TCGAGTAGGTTACCAATGGGGCATCCAGCTTTCT", "condition not met"],
  ["TAGCCTAGGTCAGATCGGGCCAGTATTCGCTATA", "condition not met"],
  ["ATATGTAGGTTACCTCCGGGTCATTCAGGCTATG", "condition met"],
  ["ATACCAAGGTGATGGTGAGGTCGTTGATACTAAC", "condition met"],
  ["CGTCAAAGTTCAAATAAGGTAACGTAAAGCACGC", "condition met"],
  ["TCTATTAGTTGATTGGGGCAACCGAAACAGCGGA", "condition met"],
  ["TCATATAGGCAAATGCTAGGTGAAAGTCCGATCT", "condition not met"],
  ["CCTTACGGGGCACGAGGTTATAGCACGACGAGCG", "condition not met"],
  ["ACTAGTTGGTCTGCTGAGGTCACACACAATTCGG", "condition met"],
  ["CTCGAAAGGTCGTGCTCAGGTGAGTATCCCAAAC", "condition not met"],
  ["CGTCAAAATTCAAGGTAACGTAACAGAAAGCAGC", "condition not met"],
  ["CCTACTGGGCCAGAGGTCATTGATTCCAATGCTC", "condition met"],
  ["GCTCGGAGGAGAAGGTCAGAGCTTTGTCCGTAGA", "condition not met"],
  ["CCAAGCAGGCCAATCTGGGTCACTCAAGGCTTGA", "condition not met"],
  ["CCTAGTTGGTCAGGAGGTCTCACACCGGATATGA", "condition met"],
  ["GCTAGTTGGTCAGTCAAAGGTCACACACCGGTCG", "condition met"],
  ["ATATGTAGGTAAAGGGTCATTCAGGTTGGTTCGC", "condition met"],
  ["ACTATTAGTTGACTTAGGGCAAACGATACGACGC", "condition not met"],
  ["CCGACTGGGGCAGAAAGGTGACCATACCATCCGG", "condition not met"]
]}
